# Tested on: SK-MEL-28
# assay text: NCI tumour cell line growth inhibition, 48 h
Active and inactive are the calls of the source. Rule as the data show it: active = GI50 up to about 1.1 µM and inactive = higher.
Give your call using only these classes: yes for active, no for inactive

Example cases with answers are listed next.
* CSC(=O)c1sc(SC)[n+](-c2ccccc2)c1O | no
* O=C(/C=C/C=C/c1ccccc1)CCc1ccccc1 | no
* CC(=O)OCC(OC(C)=O)C1C[C@H]2O[C@@H]3[C@H](C[C@H]2O1)O[C@@]1(C[C@@H]3C)C[C@H](C)[C@@H]2O[C@]3(C[C@@H]2O1)C[C@H]1O[C@H]2[C@H](C)[C@H]4OC(=O)CC5CC[C@H]6OC7[C@H]8O[C@]9(CC[C@H]%10CC(O)(CO)[C@H](CC[C@H]%11C[C@@H](C)C(O)(CO)C(C[C@@H]4O[C@H]2C[C@H]1O3)O%11)O%10)CC8O[C@@H]7[C@@H](O9)[C@H]6O5 (stereo partly specified) | yes

Check the results log: what was the call for CC(=O)OCC1OC(n2c(C)c(/N=N/c3ccccc3)c(C)c(C#N)c2=S)C(OC(C)=O)C(OC(C)=O)C1OC(C)=O (stereo unspecified) ?
no

Check the results log: what was the call for CCOC(=O)c1cccc(NC(=O)CI)c1 ?
no

Check the results log: what was the call for CC1OC(n2cc(I)c(=O)[nH]c2=O)C=CC1=O (stereo unspecified) ?
no

* * *

# Tested on: OVCAR-4
# assay text: NCI tumour cell line growth inhibition, 48 h
Active and inactive are the calls of the source. Rule as the data show it: active = GI50 up to about 1.1 µM and inactive = higher.
measurement label: GI50

Consider the worked cases shown below.
* C1=N\CCNCC/N=C\c2ccc(cc2)OCc2cccc(n2)COc2ccc/1cc2 | 97.3 µM (inactive)
* CCOC(=O)/C=C(\C(=O)OCC)n1ccc(N)nc1=O | 72.9 µM (inactive)
* O=S1(=O)OC(c2ccc(O)cc2)(c2ccc(O)cc2)c2ccccc21 | > 100 µM (inactive)

I would be grateful if you could share the reported GI50 for COc1ccc(/C=C(/c2ccc(OC)cc2)c2c(Cl)cc(Cl)c(/C(=C\c3ccc(OC)cc3)c3ccc(OC)cc3)c2/N=N/c2ccccc2)cc1 .
> 100 µM (inactive)

* * *

# Test system: Malme-3M
# assay text: NCI tumour cell line growth inhibition, 48 h
Activity calls are given as the source filed them. Cut-off read from the data, not from the text of the source: active = GI50 up to about 1.1 µM and inactive = higher.
Give your call using only these classes: active, inactive

Example cases with answers are listed next.
- CC1(C)C2CCC(=O)C1CC2 (configuration not stated): inactive
- CN(C(=O)C12C3C4C1C1C4(C(=O)C45C6C7C4C4C5C6C74C)C3C12C)C(C)(C)C (configuration not stated): inactive
- COc1ccccc1C1C(Cl)C(=O)N1n1cnc2ccccc2c1=O (configuration not stated): inactive
- Cc1cccc(/C=N\NC(=S)N2CCCCC2)n1: active
- CC(C)CC(Nc1c(O)ccc2ccccc12)C(=O)O (configuration not stated): inactive

Now for another entry.
Check the results log: what was the call for COC(=O)[C@H](Cc1ccccc1)NC(=O)c1ccc(CNC(=O)/C=C/c2ccc(OCc3ccccc3)cc2)cc1 ?
inactive

* * *

# Tested on: MOLT-4
# assay text: NCI tumour cell line growth inhibition, 48 h
The source made the active and inactive calls. Cut-off read from the data, not from the text of the source: active = GI50 up to about 1.1 µM and inactive = higher.
Give your call using only these classes: y for active, n for inactive

Example cases with answers are listed next.
• COc1ccc(C(O)/C(=N/N)c2nc3ccc(Cl)cc3nc2O)cc1 (centres undefined) = n
• OC(c1cc(C(F)(F)F)nc2c(Cl)cc(Cl)cc12)C1CCCCN1 (centres undefined) = n
• CC(=O)c1c(O)ccc2c1CC(CC=O)O2 (centres undefined) = n
• CC(=O)OCC1OC(n2c(C)c(/N=N/c3ccccc3)c(C)c(C#N)c2=S)C(OC(C)=O)C(OC(C)=O)C1OC(C)=O (centres undefined) = n

Check the results log: what was the call for CC(C)=CC[C@H]1C[C@]2(CC=C(C)C)C(=O)[C@@](CC=C(C)C)(C(=O)C(C(=O)c3ccccc3)=C2O)C1(C)C [6-EPI-CLUSIANONE] ?
n

Check the results log: what was the call for COc1ccc([C@H]2C=C(c3cc(F)c(Cl)cc3Cl)NC(=S)N2)cc1 ?
n

Check the results log: what was the call for OCC1OC(NO)C(O)C(O)C1O (centres undefined) ?
n

Check the results log: what was the call for CC(NC(=O)C(C)NC(=O)C(N)CCP(C)(=O)O)C(=O)O (centres undefined) ?
n

Check the results log: what was the call for CN(C(=O)Cc1ccc(Cl)c(Cl)c1)[C@@H]1CCCC[C@H]1[N+]1(C)CC=CC1 ?
n

Check the results log: what was the call for CCCc1c(O)c(=O)c2c(OC)cc(OC)c3c4c(OC)cc(OC)c5c(=O)c(O)c(CCC)c(c1c23)c54 ?
y

Check the results log: what was the call for Oc1ccc(-c2nc3cc(C(F)(F)F)ccc3s2)cc1 ?
n
